Values compiled from ChEMBL document CHEMBL4261606.

For each entry below, report its Activity value.
# assay_comment: Antioxidant activity assessed as trolox equivalent of AAPH-induced peroxyl radical scavenging activity at 1.3 to 13 uM up to 140 mins by ORAC-FL assay
# Assay type: functional
Numbers only, in equiv.

Here is how some compounds turned out for Activity.
>>> measured_result("CC(=O)Nc1ccc(/C=C\\[N+](=O)[O-])cc1")
0.63
>>> measured_result("CN(C)c1ccc(/C=C\\[N+](=O)[O-])cc1")
4.2
>>> measured_result("COc1ccc(/C=C(/C)[N+](=O)[O-])cc1")
0.46

Please state, for each entry, its recorded Activity.
1. C/C(=C/c1ccccc1)[N+](=O)[O-]
2. C/C(=C/c1ccc(Br)cc1)[N+](=O)[O-]
3. C/C(=C/c1ccc2c(c1)OCO2)[N+](=O)[O-]

Response:
1: 0.37; 2: 0.45; 3: 1.6

Please state, for each entry, its recorded Activity.
1. CN(C)c1ccc(CC[N+](=O)[O-])cc1
2. C/C(=C/c1cccs1)[N+](=O)[O-]

Response:
1: 13; 2: 0.54

Please state, for each entry, its recorded Activity.
1. O=[N+]([O-])/C=C\c1ccc(Br)cc1
2. COc1ccc(/C=C\[N+](=O)[O-])cc1
3. O=[N+]([O-])/C=C\c1ccc(Cl)cc1
4. O=[N+]([O-])/C=C\c1ccccc1
5. CC(Cc1ccc(N(C)C)cc1)[N+](=O)[O-] (stereo not drawn)

Response:
1. 0.44
2. 0.46
3. 0.44
4. 0.29
5. 10

---

# Tested on: Plasma
# assay_comment: Inhibition of AAPH-induced oxidation of human plasma derived LDL assessed as reversal of rate of oxygen consumption at 20 uM added after beginning of propagation phase by high-resolution oxygen electrode
Activity calls are given as the source filed them. The calls are words filed in the database; no cut-off is given here.
The reply should be one of these categories: active, inactive

// below: answered compounds
>>> group("CC(Cc1ccc(N(C)C)cc1)[N+](=O)[O-] (centres undefined)")
"active"
>>> group("CN(C)c1ccc(CC[N+](=O)[O-])cc1")
"active"
>>> group("CN(C)c1ccc(/C=C\\[N+](=O)[O-])cc1")
"inactive"

Request: Dear colleague, could you share the recorded outcome for "C/C(=C/c1ccc(N(C)C)cc1)[N+](=O)[O-]" when you have a moment?
Response: inactive
